TEST SYSTEM: LDHA (Homo sapiens)
pIC50: −log10 of the molar value.
Binary classification by pIC50, with 7 as an inclusive lower bound for label 1; all other cases are label 0.

MOLECULE | LABEL VALUE
NS(=O)(=O)c1ccc(Cc2c(-c3ccc(F)c(C#CC4(F)CCOC4)c3)nn(-c3nc(C(=O)O)cs3)c2CC2CC2)cc1F (stereo not drawn) [Compound 30] | label 1
NS(=O)(=O)c1ccc(Cc2c(-c3ccc(F)c(C#CC4(O)CCCC4)c3)nn(-c3nc(C(=O)O)cs3)c2CC2CC2)cc1F [Compound 25] | label 1
NS(=O)(=O)c1ccc(Cc2c(-c3ccc(F)c(C#CC4(F)COC4)c3)nn(-c3nc(C(=O)O)cs3)c2CC2CC2)cc1F [Compound 27] | label 1
Cc1ccc(C#Cc2cccc(-c3nn(-c4nc(C(=O)O)cs4)c(CC4(C)CC4)c3Cc3ccc(S(N)(=O)=O)c(F)c3)c2)s1 [Compound 86] | label 0
NS(=O)(=O)c1ccc(Cc2c(-c3ccc(F)c(C#CC4(O)CCOC4)c3)nn(-c3nc(C(=O)O)cs3)c2CC2CC2)cc1F (stereo not drawn) [Compound 31] | label 1
NS(=O)(=O)c1ccc(Cc2c(-c3ccc(F)c(C#CC4(F)CCCC4)c3)nn(-c3nc(C(=O)O)cs3)c2CC2CC2)cc1F [Compound 24] | label 1
Cc1ccc(C#Cc2cccc(-c3nn(-c4nc(C(=O)O)cs4)c(C(C)C4CC4)c3Cc3ccc(S(N)(=O)=O)c(F)c3)c2)s1 (stereo not drawn) [Compound 84] | label 0
Cc1ccc(C#Cc2cccc(-c3nn(-c4nc(C(=O)O)cs4)c(C(C4CC4)C4CC4)c3Cc3ccc(S(N)(=O)=O)c(F)c3)c2)s1 [Compound 89] | label 0
CC1(C#Cc2cc(-c3nn(-c4nc(C(=O)O)cs4)c(CC4CC4)c3Cc3ccc(S(N)(=O)=O)c(F)c3)ccc2F)COC1 [Compound 26] | label 1
C=C(c1cc(-c2nn(-c3nc(C(=O)O)cs3)c(CC3CC3)c2Cc2ccc(S(N)(=O)=O)c(F)c2)ccc1F)C(F)(F)F [Compound 73] | label 1

Does Cc1ccc(C#Cc2cccc(-c3nn(-c4nc(C(=O)O)cs4)c(C4CC4C4CC4)c3Cc3ccc(S(N)(=O)=O)c(F)c3)c2)s1 (stereo not drawn) [Compound 88] have a reported pIC50 of at least 7? label 0

Follow-up item: Cc1ccc(C#Cc2cccc(-c3nn(-c4nc(C(=O)O)cs4)c(C(C)(C)C4CC4)c3Cc3ccc(S(N)(=O)=O)c(F)c3)c2)s1 [Compound 85] label 0

Follow-up item: NS(=O)(=O)c1ccc(Cc2c(-c3ccc(F)c(C#CC4(O)COC4)c3)nn(-c3nc(C(=O)O)cs3)c2CC2CC2)cc1F [Compound 28] label 1
